# Test system: antigen-induced bronchospasm in guinea pig
# protocol.text: Inhibitory effect on antigen-induced bronchospasm (Konzett-Roessler, ovalbumin-sensitized)
# Type: in vivo, guinea pig (Hartley male)
# cond: Cavia porcellus; intravenous, 10 minutes before antigen (0.2 mg/kg OA i.v.); read-out: Action for suppressing antigen-induced bronchospasms ED50
1 (yes) if ED50 is below 2 mg/kg. 0 (no) if not; exact matches included in 0 (no).

CCC1(c2ccc(OC)c(OC3CCCC3)c2)CCNC(=O)O1 (stereo not drawn)    0 (no)
COc1ccc(C2(C)CCNC(=O)O2)cc1OCC1CC1 (stereo not drawn)    1 (yes)

Req: Threshold test, ED50 < 2 mg/kg: COc1ccc(C2(C)CCN(C)C(=O)O2)cc1OCC1CC1 (stereo not drawn)
Resp: 0 (no)

Req: Item COc1ccc(C2CCN(Cc3ccc(Br)cc3)C(=O)O2)cc1OC1CCCC1 (stereo not drawn) : ED50 beneath 2 mg/kg, strictly?
Resp: 0 (no)

Req: I'd appreciate it if you could check whether COc1ccc(C2CCNC(=O)O2)cc1OCCc1ccccc1 (stereo not drawn) has ED50 smaller than 2 mg/kg.
Resp: 0 (no)

Req: Hello, I'm reviewing records and need to know if ED50 of COc1ccc(C2CCNC(=O)O2)cc1OCC(C)C (stereo not drawn) is below 2 mg/kg. Could you check?
Resp: 1 (yes)

Req: Please let me know if COc1ccc(C2CCNC(=O)O2)cc1OC1Cc2ccccc2C1 (stereo not drawn) shows ED50 below 2 mg/kg.
Resp: 1 (yes)

Req: Check if ED50 falls below 2 mg/kg for COc1ccc(C2(C)CCNC(=O)O2)cc1OCC(C)C (stereo not drawn) .
Resp: 1 (yes)

Req: ED50 strictly < 2 mg/kg for this molecule? COc1ccc(C2CCN(Cc3ccncc3)C(=O)O2)cc1OC1CCCC1 (stereo not drawn)
Resp: 0 (no)

====

# Tested on: rat neutrophils
# protocol.text: Inhibition of super oxide anion release from rat neutrophils (A23187-stimulated chemiluminescence)
# Type: cell-based, rat (Wister)
# cond: Neutrophil, stimulated with 0.3 μM calcium ionophore A23187, read-out: Inhibitory action of super oxide anion release from rat neutrophils IC50
Provide the recorded pIC50 for the entries that follow.
Give bare numbers, as −log10 of the molar value.

Study these solved cases before continuing.
COc1ccc(C2CCN(C)C(=O)O2)cc1OC1CCCC1 (stereo not shown) [Compound No. 10]    7.05
COc1ccc(C2(C)CCNC(=O)O2)cc1OC (stereo not shown) [Compound No. 5]    5.62
COc1ccc(C2CCNC(=O)O2)cc1OC (stereo not shown) [Compound No. 1]    5.06
COc1ccc(C2CCNC(=O)O2)cc1OC1CCCC1 (stereo not shown) [Compound No. 2]    6.26
COc1ccc(C2CCN(Cc3ccc(Br)cc3)C(=O)O2)cc1OC1CCCC1 (stereo not shown) [Compound No. 11]    7.30
COc1ccc(C2CCN(Cc3ccccc3)C(=O)O2)cc1OC (stereo not shown) [Compound No. 9]    5.64

Consider the record given below.
Req: Give a short answer stating reported pIC50 for COc1ccc(C2CCN(C)C(=O)O2)cc1OC (stereo not shown) [Compound No. 8] .
Resp: 5.39

====

Consider the following compounds; for each one, report its ED50.
# Test system: antigen-induced bronchospasm in guinea pig
# protocol.text: Inhibitory effect on antigen-induced bronchospasm (Konzett-Roessler, ovalbumin-sensitized)
# Format: in vivo, guinea pig (Hartley male)
# cond: Cavia porcellus; intravenous, 10 minutes before antigen (0.2 mg/kg OA i.v.); read-out: Action for suppressing antigen-induced bronchospasms ED50
Answers are plain numbers, in mg/kg.

Some entries whose results are on file:
COc1ccc(C2(C)CCNC(=O)O2)cc1OC (stereo not shown) [Compound No. 5]    0.3
COc1ccc(C2CCNC(=O)O2)cc1OCC1CCC1 (stereo not shown) [Compound No. 61]    1.84
COc1ccc(C2(C)CCNC(=O)O2)cc1OC1CCCC1 (stereo not shown) [Compound No. 6]    0.3
COc1ccc(C2CCN(C)C(=O)O2)cc1OC1CCCC1 (stereo not shown) [Compound No. 10]    0.95
COc1ccc(C2CCN(C)C(=O)O2)cc1OC1Cc2ccccc2C1 (stereo not shown) [Compound No. 25]    0.061

Record ED50 for all entries; do not skip any.
1. COc1ccc(C2CCNC(=O)O2)cc1OCC1CCCC1 (stereo not shown) [Compound No. 76]
2. COc1ccc(C2CCNC(=O)O2)cc1OC1CCCC1 (stereo not shown) [Compound No. 2]

Resp:
[0.27, 0.23]
